measured.target: human α-thrombin (Homo sapiens (Human), UniProt P00734)
experimental.protocol: In vitro assay for determining proteinase inhibition (thrombin Ki)
Type: biochemical
test.conditions: 25° C., 0.05 M TRIS buffer pH 7.4, 0.15 M NaCl, 0.1% PEG; competitive inhibition assumed
pKi: −log10 of the molar value.
experimental.readout: pKi

Example cases with answers are listed next.
- NCc1ccc(Cl)cc1CNC(=O)[C@@H]1CCCN1C(=O)c1ncccn1 [Compound 42-3, bis(2,2,2-trifluoroacetate)]: 6.59
- NCc1ccc(Cl)cc1CNC(=O)[C@@H]1CCCN1C(=O)c1cc(C(O)c2ccccn2)c[nH]1 (some centres unmarked): 8.01
- NCc1ccc(Cl)cc1CNC(=O)[C@@H]1CCCN1C(=O)c1cc(C(=O)c2ccccn2)c[nH]1: 7.77

I: NCc1ccc(Cl)cc1CNC(=O)[C@@H]1CCCN1C(=O)c1cc(C(O)c2ccncc2)c[nH]1 (some centres unmarked) [Compound 6-2, (2,2,2-trifluoroacetate)]
II: NCc1ccc(Cl)cc1CNC(=O)[C@@H]1CCCN1C(=O)C1c2ccccc2CS1(=O)=O (some centres unmarked)
Q) In the pair I and II , the larger recorded pKi belongs to which? Kindly state the label of the option you pick.
A) I
(I: 7.68, II: 6.40)
